MEASURED_TARGET: HIV strain MDR (L100I, K103N, Y181C, E138G, V1791, L2214F, V278V/I and A327A/V in HIV reverse transcriptase)
PROTOCOL_SUMMARY: microbe, parasite or virus in culture
Format: cell-based, HIV-1
RECORDED_CONDITIONS: MDR strain; MT4 LTR-EGFP cells
Below: a set of entries, each annotated with reported MDR pEC50 (-log EC50).

Here are 4 compounds together with their reported answers.
> print(dat)
                                   compound  result
1  COCc1nc(Nc2ccc(C#N)cc2)nc(Nc2c(C)cc(/C=C/C#N)cc2C)c1C(=O)NC1CC1    6.85
2  COCc1nc(Nc2ccc(C#N)cc2)nc(Nc2c(C)cc(/C=C/C#N)cc2C)c1C(=O)NCCN(C)C    5.69
3  COCc1nc(Nc2ccc(C#N)cc2)nc(Nc2c(C)cc(C=CC#N)cc2C)c1C(=O)NCc1cccs1 (mixture of isomers)    6.42
4  COCc1nc(Nc2ccc(C#N)cc2)nc(Nc2c(C)cc(/C=C/C#N)cc2C)c1C(=O)NCc1ccccn1    7.03

Entry C=CCNC(=O)c1c(COC)nc(Nc2ccc(C#N)cc2)nc1Nc1c(C)cc(/C=C/C#N)cc1C has what MDR pEC50 (-log EC50)?
6.72

Consider the compound shown here: COCc1nc(Nc2ccc(C#N)cc2)nc(Nc2c(C)cc(/C=C/C#N)cc2C)c1C(=O)NCCc1cccs1 What is its recorded MDR pEC50 (-log EC50)?
5.79

From: patent US8318736B2
